Catalogue of self-cleavage kobs at 640 uM GlcN6P readings, one per entry.
B1: glmS ribozyme (parent)
chain: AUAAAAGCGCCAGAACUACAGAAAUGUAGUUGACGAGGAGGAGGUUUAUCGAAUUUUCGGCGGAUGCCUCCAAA

# Variants of: B1
# experimental_details: self-cleavage kobs at 640 uM GlcN6P; higher = faster cleavage; RNA array
# condition_details: with glucosamine-6-phosphate
Fewer inactive variants are shown than the library holds.

| residue_change | modifier_sign | self-cleavage kobs at 640 uM GlcN6P, s⁻¹ |
| --- | --- | --- |
| A14U G29A U47G C50U A53C C70G | = | 0.00022 |
| C10A A36C U46A | < | 1e-05 |
| U55C C68A | < | 1e-05 |
| U30G U31A U65A | = | 0.000791 |
| U31G G44U U46G C58A | < | 1e-05 |
| G63U C70G | = | 2.59e-05 |
| U30C U69G | = | 0.000119 |
| A39U A42C C50G | < | 1e-05 |
| G41A G51U | < | 1e-05 |
| A36U A52G C70A | = | 0.000171 |
| A15G C34A A64C | < | 1e-05 |
